# TARGET UNDER TEST: MrkH-8xHis (Klebsiella pneumoniae AJ218)
# Sequence: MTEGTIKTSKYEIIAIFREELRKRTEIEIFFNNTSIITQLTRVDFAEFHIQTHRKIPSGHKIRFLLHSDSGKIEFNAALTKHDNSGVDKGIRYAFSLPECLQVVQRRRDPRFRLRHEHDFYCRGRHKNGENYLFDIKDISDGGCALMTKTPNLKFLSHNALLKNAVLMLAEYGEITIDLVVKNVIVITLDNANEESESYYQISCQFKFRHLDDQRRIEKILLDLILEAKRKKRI
# EXPERIMENT SUMMARY: EMSA
# TEST CONDITIONS: 10 mM Tris-HCl pH 7.4, 50 mM KCl, 1 mM DTT, 100 mg/mL BSA (so in the source), 5 ng/mL poly[dI-dC], 200 uM c-di-GMP, 30 C 20 min; 5% native PAGE with 50 uM c-di-GMP …
MEASURED PARAMETER: binding

GCTGTTGCGGTCACTTTCTCTCGCTCTGGCGTTAGGCTTGCTGCGCTGTAAACAACCACCCTCGCGTTTTCATCTAAGAATGACTGTTTATTAATAGTCGATGGTTATCTGTTATATAACTTAATGAAACGTGAACAAATGTATATTTGTCGGCGAATAAATAGCATTCTTTGACGCCGATAGCACCAGCGAACTTATATTTTTAGGTTCGTTACCTGACGCCTTAAATATTGCGGCTCCCGGTCAGTCGAAGATTCTATTAGCAGTGGC (double strand) [mrkA fragment, MrkH box mut-6]    binds more weakly
GCTGTTGCGGTCACTTTCTCTCGCTCTGGCGTTAGGCTTGCTGCGCTGTAAACAACCACCCTCGCGTTTTCATCTCCCAATGACTGTTTATTAATAGTCGATGGTTATCTGTTATATAACTTAATGAAACGTGAACAAATGTATATTTGTCGGCGAATAAATAGCATTCTTTGACGCCGATAGCACCAGCGAACTTATATTTTTAGGTTCGTTACCTGACGCCTTAAATATTGCGGCTCCCGGTCAGTCGAAGATTCTATTAGCAGTGGC (double strand) [mrkA fragment, MrkH box mut-5]    binds more weakly
GCTGTTGCGGTCACTTTCTCTCGCTCTGGCGTTAGGCTTGCTGCGCTGTAAACAACCACCCTCGCGTTTTCATCTATCAATGACTGTTGCAGCATAGTCGATGGTTATCTGTTATATAACTTAATGAAACGTGAACAAATGTATATTTGTCGGCGAATAAATAGCATTCTTTGACGCCGATAGCACCAGCGAACTTATATTTTTAGGTTCGTTACCTGACGCCTTAAATATTGCGGCTCCCGGTCAGTCGAAGATTCTATTAGCAGTGGC (double strand) [mrkA fragment, UP mutation]    binds
